B1: ZNF449 (parent)
chain: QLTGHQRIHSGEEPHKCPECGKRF

Variants of: B1
Test Details: protein stability index of a GFP-peptide fusion (GPS, HEK-293T) (PSI 1-6); higher = more stable;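 further: lentivirally expressed fusions sorted by FACS into six bins by GFP to DsRed ratio, PSI derived from sequencing read proportions per bin multiplied by bin number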
Condition Label: c terminus: a fixed tail appended
Quick reference: protein stability index of the listed items.

Would you please look over these solved cases?
{"Mutation Spec": "H15L", "Readout Value": 3.65}
{"Mutation Spec": "G21Y", "Readout Value": 3.6}
{"Mutation Spec": "I8F", "Readout Value": 3.96}
{"Mutation Spec": "H5W", "Readout Value": 2.89}
{"Mutation Spec": "P14I", "Readout Value": 4.5}
{"Mutation Spec": "I8W", "Readout Value": 4.27}
{"Mutation Spec": "G11L", "Readout Value": 3.87}
{"Mutation Spec": "R23A", "Readout Value": 4.91}
{"Mutation Spec": "K16Y", "Readout Value": 3.61}
{"Mutation Spec": "F24C", "Readout Value": 5.12}

Please give the measured protein stability index for this variant: Q6H
4.16

// query protein stability index value for entry Q1Y
2.71

Would you kindly share the measured protein stability index for R7L ?
4.7

Recorded protein stability index of R7M , please.
4.43

So what does the record say about protein stability index for R7I ?
4.58

State the recorded protein stability index for this entry: E13T
3.39

# query: protein stability index of entry E12L
4.05
